molecular target: His-tagged human SHIP2 phosphatase domain (Homo sapiens); construct: we produced a His-tagged human SHIP2 phosphatase domain; His; experiment: Malachite green phosphate assay, recombinant SHIP2 phosphatase domain (High Throughput Biomedicine Unit, 384-well); details: purified His-tagged phosphatase domain; 100 µM PI(3,4,5)P3
Sequence (O15357 419-732 limits assumed): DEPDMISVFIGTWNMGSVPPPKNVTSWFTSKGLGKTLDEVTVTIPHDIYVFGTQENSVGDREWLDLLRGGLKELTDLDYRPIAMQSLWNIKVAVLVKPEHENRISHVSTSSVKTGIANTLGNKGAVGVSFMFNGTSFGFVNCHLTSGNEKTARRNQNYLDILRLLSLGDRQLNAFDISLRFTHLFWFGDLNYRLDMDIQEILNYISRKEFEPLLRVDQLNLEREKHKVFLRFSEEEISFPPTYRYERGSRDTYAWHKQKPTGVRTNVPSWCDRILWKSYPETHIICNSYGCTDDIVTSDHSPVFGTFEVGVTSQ
Structures can show the parent of a compound that is named as a salt.
Provide the reported pIC50 of each item.
Give bare numbers, as −log10 of the molar value.

Worked cases, pIC50 given:
{"columns": ["Compound", "Value observed"],
 "data": [
  ["CC(=O)O[C@]1(C(C)=O)CC[C@H]2[C@@H]3C=C(C)C4=CC(=O)CC[C@]4(C)[C@H]3CC[C@@]21C [Megestrol acetate]", 5.21],
  ["CN(C)C(=N)N=C(N)N [Metformin, 1,1-Dimethylbiguanide hydrochloride]", 5.22],
  ["Nc1nc2nc[nH]c2c(=S)[nH]1", 5.05]
]}

Now turn to the next compound.
Which measured pIC50 belongs to Sc1ncnc2nc[nH]c12 [Mercaptopurine, 3,7-dihydropurine-6-thione] , tested on His-tagged human SHIP2 phosphatase domain (Homo sapiens)? 5.06

###

Target: His-tagged human SHIP1 phosphatase domain (Homo sapiens, UniProt Q92835)
Construct: Recombinant His-tagged human SHIP2 and SHIP1 phosphatase domains were produced as previously described; His
Sequence (Q92835 399-715 limits assumed): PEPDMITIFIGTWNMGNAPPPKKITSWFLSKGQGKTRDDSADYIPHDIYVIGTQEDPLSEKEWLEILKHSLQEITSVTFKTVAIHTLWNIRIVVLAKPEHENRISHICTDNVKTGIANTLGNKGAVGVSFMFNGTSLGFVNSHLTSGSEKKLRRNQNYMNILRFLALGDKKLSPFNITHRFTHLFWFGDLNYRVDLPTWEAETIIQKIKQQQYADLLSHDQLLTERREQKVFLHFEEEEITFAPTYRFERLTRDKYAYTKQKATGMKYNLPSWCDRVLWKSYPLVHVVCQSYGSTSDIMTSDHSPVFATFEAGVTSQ
Test: Malachite green phosphate assay, recombinant SHIP1 phosphatase domain (High Throughput Biomedicine Unit)
Settings: purified His-tagged phosphatase domain
Measured endpoint: IC50 (µM)
Numbers only, in µM.

{"columns": ["Compound", "Result unit", "IC50"],
 "data": [
  ["CC(=O)O[C@]1(C(C)=O)CC[C@H]2[C@@H]3C=C(C)C4=CC(=O)CC[C@]4(C)[C@H]3CC[C@@]21C [Megestrol acetate]", "µM", 24.6]
]}

Now turn to the next compound.
Bench note: what IC50 did Sc1ncnc2nc[nH]c12 [Mercaptopurine, 3,7-dihydropurine-6-thione] show? 21.2

###

Molecular target: His-tagged human SHIP1 phosphatase domain (Homo sapiens, UniProt Q92835)
Construct: Recombinant His-tagged human SHIP2 and SHIP1 phosphatase domains were produced as previously described; His
Sequence (Q92835 399-715 limits assumed): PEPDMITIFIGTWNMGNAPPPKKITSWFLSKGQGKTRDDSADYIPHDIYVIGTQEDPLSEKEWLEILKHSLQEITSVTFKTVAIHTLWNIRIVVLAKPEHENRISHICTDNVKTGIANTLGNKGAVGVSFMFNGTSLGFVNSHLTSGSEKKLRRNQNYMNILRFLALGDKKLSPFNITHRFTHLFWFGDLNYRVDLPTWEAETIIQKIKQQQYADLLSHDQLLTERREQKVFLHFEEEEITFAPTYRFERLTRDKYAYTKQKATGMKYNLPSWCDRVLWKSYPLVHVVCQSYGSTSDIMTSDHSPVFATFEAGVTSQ
Experiment: Malachite green phosphate assay, recombinant SHIP1 phosphatase domain (High Throughput Biomedicine Unit)
Details: purified His-tagged phosphatase domain
pIC50: −log10 of the molar value. Counter-ions that a name gives are not always drawn.
Provide the reported pIC50 of each item.

Worked cases, pIC50 given:
{"columns": ["Molecule", "pIC50"],
 "data": [
  ["Nc1nc2nc[nH]c2c(=S)[nH]1", "< 4.30"],
  ["C[C@H](NC(=O)c1sccc1OCc1ccc(Cl)cc1)c1ccccc1", "< 4.30"]
]}

Bench note: what pIC50 did CN(C)C(=N)N=C(N)N [Metformin, 1,1-Dimethylbiguanide hydrochloride] show? < 4.30

Recorded values, source paper PMC6338644.
